Test system: MX-1 breast xenograft, nude mice, tumor weight T/C
PROTOCOL DESCRIPTION: NCI In Vivo Anticancer Drug Screen. Data for tumor model Human Mammary Carcinoma MX-1 Xenograft (intrarenal inoculation) in NU/NU Swiss (nude) mice
EXPERIMENTAL PARAMETERS: endpoint: mean tumor weight change; dose: 25.0 mg/kg/injection; schedule: Q01DX010 (sc); vehicle: saline; higher = larger tumour
Records with an inconclusive call do not appear.
METRIC NAME: T/C

Consider the reported T/C for these compounds:
{"columns": ["COMPOUND", "T/C"],
 "data": [
  ["CC1(C)OC(=O)N(CO)C1=O", "45 % of control"],
  ["COc1cccc2c1C(=O)c1c(O)c3c(c(O)c1C2=O)CC(O)(C(=O)CO)CC3OC1CC(N)C(O)C(C)O1 (stereo not drawn)", "78 % of control"]
]}

Now let's try a different one.
Query block: Can you share its T/C? I mean this compound: CN1CCN(CCCN2c3ccccc3Sc3ccc(C(F)(F)F)cc32)CC1
Result block: 107 % of control

* * *

# T/C per record follows
Tested on: MX-1 breast xenograft, nude mice, tumor weight T/C
PROTOCOL DESCRIPTION: NCI In Vivo Anticancer Drug Screen. Data for tumor model Human Mammary Carcinoma MX-1 Xenograft (intrarenal inoculation) in NU/NU Swiss (nude) mice
EXPERIMENTAL PARAMETERS: endpoint: mean tumor weight change; dose: 200.0 mg/kg/injection; schedule: Q01DX010 (sc); vehicle: saline with Tween-80; higher = larger tumour
Inconclusive results are not listed.

Some compounds with known T/C results, for comparison:
{"columns": ["CPD SMILES", "TEST VALUE"],
 "data": [
  ["COc1ccc2nc3cc(Cl)ccc3c(NCCNCCNCCNc3c4ccc(Cl)cc4nc4ccc(OC)cc34)c2c1", "80 % of control"],
  ["CCCCOC(=O)/C=C(\\Br)C(=O)OCCCC", "191 % of control"]
]}

Query block: // returns reported T/C for input O=c1nc(Oc2ccccc2)nc2ncccn12
Result block: 46 % of control

* * *

Parameter T/C: see the listing below.
Tested on: MX-1 breast xenograft, nude mice, tumor weight T/C
PROTOCOL DESCRIPTION: NCI In Vivo Anticancer Drug Screen. Data for tumor model Human Mammary Carcinoma MX-1 Xenograft (intrarenal inoculation) in NU/NU Swiss (nude) mice
EXPERIMENTAL PARAMETERS: endpoint: mean tumor weight change; dose: 400.0 mg/kg/injection; schedule: Q01DX010 (sc); vehicle: Klucel (hydroxypropylcellulose) (HPC); higher = larger tumour
Results filed as inconclusive are left out.

See these solved cases before continuing.
{"columns": ["MOLECULE", "METRIC NAME", "TEST VALUE"],
 "data": [
  ["C=C(NC(=O)C(=C)NC(=O)c1csc(C2=NC3c4csc(n4)C4NC(=O)c5csc(n5)C(C(C)(O)C(C)O)NC(=O)C5CSC(=N5)/C(=C/C)NC(=O)C(C(C)O)NC(=O)c5csc(n5)C3(CC2)NC(=O)C(C)NC(=O)C(=C)NC(=O)C(C)NC(=O)C(C(C)CC)NC2C=Cc3c(C(C)O)cc(nc3C2O)C(=O)OC4C)n1)C(N)=O (stereo not given)", "T/C", "73 % of control"],
  ["CCCC(=O)OCc1cc(=O)n(C)c2c3c4c(cc12)c(C)cc(=O)n4CO3", "T/C", "91 % of control"],
  ["COC(=O)Nc1cccc(-c2nc3ccc(NC(=O)OC)cc3c(=O)n2-c2ccccc2)c1", "T/C", "123 % of control"]
]}

--- query ---
Query block: Find T/C (MX-1 breast xenograft, nude mice, tumor weight T/C) for the entry O=[N+]([O-])/C=C\c1ccc2c(c1)OCO2
Result block: 86 % of control

* * *

The following compounds are listed with their measured T/C values.
System: MX-1 breast xenograft, nude mice, tumor weight T/C
PROTOCOL DESCRIPTION: NCI In Vivo Anticancer Drug Screen. Data for tumor model Human Mammary Carcinoma MX-1 Xenograft (intrarenal inoculation) in NU/NU Swiss (nude) mice
EXPERIMENTAL PARAMETERS: endpoint: mean tumor weight change; dose: 300.0 mg/kg/injection; schedule: Q04DX003 (sc); vehicle: saline with Tween-80; higher = larger tumour
Results filed as inconclusive are left out.

{"columns": ["COMPOUND", "T/C"],
 "data": [
  ["[I][Hg][CH2]C1COC([CH2][Hg][I])CO1 (stereo not given)", "86 % of control"],
  ["O=C(O)C1CC1.[Ag]", "98 % of control"],
  ["CC(Oc1ccccc1-c1ccccc1)C(=O)N(C)C (stereo not given)", "82 % of control"],
  ["CN(C)P(=O)(Oc1ccccc1)N(C)C", "107 % of control"],
  ["Oc1cc2ccccc2c(-c2c(O)c(O)cc3ccccc23)c1O", "151 % of control"]
]}

Query block: // lookup T/C for CCC1=C2C(=O)c3ccccc3C2=C(C)S(=O)(=O)O1
Result block: 122 % of control

Query block: I would be grateful if you could share the reported T/C for C[CH2][Ge]([CH2]C)[CH2]C.C[CH2][Ge]([CH2]C)[CH2]C.C[CH2][Ge]([CH2]C)[O][Ge]([CH2]C)[CH2]C .
Result block: 79 % of control

Query block: Dear colleague, I am looking for the recorded T/C of the following compound: CC(C#N)(C#N)N=Nc1ccc(Cl)cc1Cl
Result block: 94 % of control

Query block: Which T/C is reported for this compound? CC1(C)OCC2OC=CC(=O)C2O1 (stereo not given)
Result block: 73 % of control

Query block: Which T/C is reported for this compound? Cc1cc(O)c(N=Nc2ccc(C(=O)O)cc2)cc1C
Result block: 123 % of control

* * *

The following molecules are shown together with reported T/C values.
System: MX-1 breast xenograft, nude mice, tumor weight T/C
PROTOCOL DESCRIPTION: NCI In Vivo Anticancer Drug Screen. Data for tumor model Human Mammary Carcinoma MX-1 Xenograft (intrarenal inoculation) in NU/NU Swiss (nude) mice
EXPERIMENTAL PARAMETERS: endpoint: mean tumor weight change; dose: 25.0 mg/kg/injection; schedule: Q01DX010 (sc); vehicle: Klucel (hydroxypropylcellulose) (HPC); higher = larger tumour
Inconclusive results are not listed.

{"columns": ["MOLECULE", "EXPERIMENTAL SYSTEM", "T/C"],
 "data": [
  ["O=C(CCBr)N1CCN(C(=O)CCBr)CC1", "MX-1 breast xenograft, nude mice, tumor weight T/C", "19 % of control"],
  ["CCOC(=O)Nc1cc2c(c(N)n1)N=C(CN(C)c1ccccc1)CN2", "MX-1 breast xenograft, nude mice, tumor weight T/C", "82 % of control"],
  ["C[C@@H]1C[C@H]2[C@@H]3CCC4=CC(=O)C=C[C@]4(C)[C@@]3(F)[C@@H](O)C[C@]2(C)[C@@]1(O)C(=O)CO", "MX-1 breast xenograft, nude mice, tumor weight T/C", "33 % of control"]
]}

Query block: So what's the measured T/C for this one? C1CCC2[N-]CC3CCCCC3[N-]CC3CCCCC3[N-]CC3CCCCC3[N-]CC2C1.[Cu] (centres undefined)
Result block: 113 % of control

* * *

System: MX-1 breast xenograft, nude mice, tumor weight T/C
PROTOCOL DESCRIPTION: NCI In Vivo Anticancer Drug Screen. Data for tumor model Human Mammary Carcinoma MX-1 Xenograft (intrarenal inoculation) in NU/NU Swiss (nude) mice
EXPERIMENTAL PARAMETERS: endpoint: mean tumor weight change; dose: 37.5 mg/kg/injection; schedule: Q04DX003 (sc); vehicle: saline with Tween-80; higher = larger tumour
Results filed as inconclusive are left out.
METRIC NAME: T/C

The cases that follow already have their T/C on record.
{"columns": ["MOLECULE", "T/C"],
 "data": [
  ["Nc1nc(N)c2c(ccc3c2ccn3Cc2cccc([N+](=O)[O-])c2)n1", "98 % of control"],
  ["CCC1CCCCN1C(=S)N/N=C(\\C)c1ccccn1 (centres undefined)", "97 % of control"],
  ["CC1c2ccccc2CC(CCN(C)C)c2ccccc21 (centres undefined)", "52 % of control"]
]}

Query block: Observed T/C on MX-1 breast xenograft, nude mice, tumor weight T/C for Clc1cc(Cl)c(C[N+]23CN4CN(CN(C4)C2)C3)cc1Cl , please.
Result block: 106 % of control

Query block: Give T/C (MX-1 breast xenograft, nude mice, tumor weight T/C) of the following molecule: CCOC(=O)Nc1cc2c(c(N)n1)N=C(c1ccc(Cl)cc1Cl)CN2
Result block: 79 % of control

Query block: Query the reported T/C for MX-1 breast xenograft, nude mice, tumor weight T/C; item: OC1CCCC2CCCNC12 (centres undefined)
Result block: 76 % of control

Query block: Could you share what T/C was measured for COC(=O)C(F)C(Br)C(=O)OC (centres undefined) , tested on MX-1 breast xenograft, nude mice, tumor weight T/C?
Result block: 49 % of control

Query block: Notebook: pull reported T/C for MX-1 breast xenograft, nude mice, tumor weight T/C, entry CCCCCCCCCCCCCCCC(=O)OCC1OC(n2ccc(N)nc2=O)C(O)C1O (centres undefined)
Result block: 30 % of control

Query block: Please provide the recorded T/C for CCC[P+](c1ccccc1)(c1ccccc1)c1ccccc1 , tested on MX-1 breast xenograft, nude mice, tumor weight T/C.
Result block: 73 % of control
